The origin of these recorded values is patent US9145373B2.

Recorded inhibition at 10 µM for the following compounds
- Assayed Target: KMO mouse enzyme (Mus musculus, UniProt Q91WN4)
- Construct: KMO enzyme prepared at Evotec from mouse liver (4-6 weeks old) via mitochondria isolation; from tissue; host or cells: mouse liver (4-6 weeks old), mitochondria isolation, prepared at Evotec
- Sequence (Q91WN4 whole entry): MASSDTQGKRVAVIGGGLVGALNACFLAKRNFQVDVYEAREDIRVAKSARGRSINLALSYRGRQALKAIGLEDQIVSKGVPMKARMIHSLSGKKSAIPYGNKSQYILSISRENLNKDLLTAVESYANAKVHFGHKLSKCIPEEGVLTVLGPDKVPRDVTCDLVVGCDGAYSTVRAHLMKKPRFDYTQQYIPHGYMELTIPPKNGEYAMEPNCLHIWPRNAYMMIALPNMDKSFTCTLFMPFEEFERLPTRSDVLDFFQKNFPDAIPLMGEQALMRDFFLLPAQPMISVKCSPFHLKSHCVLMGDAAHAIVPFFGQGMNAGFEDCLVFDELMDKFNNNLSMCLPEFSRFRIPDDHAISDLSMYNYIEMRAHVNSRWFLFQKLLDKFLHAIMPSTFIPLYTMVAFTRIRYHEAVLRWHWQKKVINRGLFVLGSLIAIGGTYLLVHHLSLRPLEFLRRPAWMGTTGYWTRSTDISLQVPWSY
- Experiment Description: KMO mouse enzyme assay: L-Kynurenine hydroxylation to 3-Hydroxy-Kynurenine monitored by LC/MS (MRM)
- Assay type: biochemical
- Cond: compound at 10 μM; KMO enzyme from mouse liver mitochondria; read-out: INH.Mouse @ 10 μM
Respond with the bare value in %.

COC(=O)c1cc(-c2ccc(F)c(F)c2)ncn1    100
O=C(Nc1nncs1)c1cc(-c2cccc(Cl)c2)ncn1    97.4
O=C(c1cc(-c2ccc(Cl)c(Cl)c2)ncn1)N1CCc2cc(Cl)ccc21    100

# input for lookup
Inquiry: What measured inhibition at 10 µM goes with CN(C(=O)c1cc(-c2cccc(Cl)c2)ncn1)c1cccnc1 ?
Reply text: 95.2
